// reported median enrichment for each item listed
tested on: HEK293T; assay: median enrichment of reporter reads in eGFP-reduced (low/intermediate) vs eGFP-high sorted cells (eGFP-extension fusion abundance) (ratio); higher = stronger loss of eGFP-fusion protein abundance (more destabilising extension)

For orientation, consider the following solved cases.
>  <sequence string>
QDTERRTYSRNGLVQSQSPPL [CFAP157]

>  <median enrichment>
0.332

$$$$
>  <sequence string>
LSVHWGPSVVPFVENLLHKALLNCLELGTSIPMETSPVWGTWRICQRLSDMGPWQFYTGKWSAPLGYTRLSVFSPSILFPLHM [NYNRIN]

>  <median enrichment>
3.7

$$$$
>  <sequence string>
RNHKEPSVPVHEISLLLENRNIDYQITMQLKPYCFFEQLFIPVIKTDCAEYSKRSEIGVYNYIFSDAIY [RPE]

>  <median enrichment>
8.87

$$$$
>  <sequence string>
QISTNKSKTNSRIPDCPIPI [PTCHD3]

>  <median enrichment>
2.49

$$$$
>  <sequence string>
AEWPGTCLKCLFPISLRDQEGILGMPLTSLLSRQQKWRGSQESALNCPPGWQGSLNRYLELGSGLFPCVLTTRASCSRAGIRG [F11R]

>  <median enrichment>
9.01

$$$$
>  <sequence string>
YALPSWPLISAWVDHPRLQRVEGGSSSWESF [TMEM214]

>  <median enrichment>
7.05

$$$$
>  <sequence string>
CVETCAPRRGAAVREGLCTAAPATDPVRKYLLGASPGLGLGMRWSPGLSFLSTQWVILASTCRAPCQALPTHLPV [OLFML2A]

>  <median enrichment>
7.4

$$$$
>  <sequence string>
SAPPAACPACPACLSRHTGFRTC [DIS3L2]

>  <median enrichment>
16.6

$$$$

Alright, here's another sequence for you.
Record request: median enrichment value, item APRAPRQRSRDG [Degron KLHDC3]
10.8

###

tested on: HEK293T; test: median enrichment of reporter reads in eGFP-reduced (low/intermediate) vs eGFP-high sorted cells (eGFP-extension fusion abundance) (ratio); higher = stronger loss of eGFP-fusion protein abundance (more destabilising extension)
measured attribute: median enrichment
# output: bare number, no unit

>  <substance>
SLRLQRLLCIAFLLQCKERDQGSQEMFAQNGR [GDNF]

>  <median enrichment>
8.43

$$$$
>  <substance>
SVQMMWEFVGFLFFFFFDT [ZNF80]

>  <median enrichment>
7.98

$$$$
>  <substance>
SGCHGRLSPSIL [KRTAP6-1]

>  <median enrichment>
0.506

$$$$
>  <substance>
CGSCGCPCCVALYDCC [NDUFB10]

>  <median enrichment>
4.77

$$$$
>  <substance>
LGLLALTLQPTLAVWPSPGSFPAPLPLFPVLLNSPSWRVQALGMGGTRPHSFHRALRPDTADQPHSAQEAASGVGAQRGTAAS [BAP1]

>  <median enrichment>
8.12

$$$$

Now for a further substance.
Give the measured median enrichment of QTHGTDSLGN [DPF3] .
0.444

###

system: HEK293T; assay: median enrichment of reporter reads in eGFP-reduced (low/intermediate) vs eGFP-high sorted cells (eGFP-extension fusion abundance) (ratio); higher = stronger loss of eGFP-fusion protein abundance (more destabilising extension)
measured attribute: median enrichment

Past entries and their recorded results:
>  <substance>
QGSYGIPPRSARA [CDKN2A]

>  <measured attribute>
median enrichment

>  <assay value>
5.31

$$$$
>  <substance>
GKSPVSQHRGAALHTCGETFPAGPRESDSKNNRCCFSRVM [HABP4]

>  <measured attribute>
median enrichment

>  <assay value>
8.99

$$$$
>  <substance>
YVDLRQTLGGVKESHRYPKE [MAGEH1]

>  <measured attribute>
median enrichment

>  <assay value>
3.34

$$$$
>  <substance>
RRVQRTCSSLGEEAPLKNSPPGTQLQPSGQAAGRRQRQREETLALTPSRVVIFGFAHHPGLPDGTLL [C12orf49]

>  <measured attribute>
median enrichment

>  <assay value>
11.7

$$$$
>  <substance>
YIRRHH [IFITM2]

>  <measured attribute>
median enrichment

>  <assay value>
9.67

$$$$
>  <substance>
RTCGRPF [CMTM1]

>  <measured attribute>
median enrichment

>  <assay value>
6.49

$$$$

# lookup: median enrichment of VVVVVVV [Val07]
7.67

Param item = GAMLPSSSSPPSTGWDRRQVPAHACLRLFPPLGQALGWKLGS [ADCYAP1R1] ; retrieve measured median enrichment.
9.03

###

system: HEK293T; assay: median enrichment of reporter reads in eGFP-reduced (low/intermediate) vs eGFP-high sorted cells (eGFP-extension fusion abundance) (ratio); higher = stronger loss of eGFP-fusion protein abundance (more destabilising extension)
measured attribute: median enrichment

Known results for substances:
>  <substance>
WSILQDLPEAA [PCDH10]

>  <measured attribute>
median enrichment

>  <assay value>
9.03

$$$$
>  <substance>
SLREAC [ZNF672]

>  <measured attribute>
median enrichment

>  <assay value>
0.708

$$$$
>  <substance>
LEPAAPASHLCLERTSAACQF [ECHS1]

>  <measured attribute>
median enrichment

>  <assay value>
0.709

$$$$

I would be grateful if you could share the reported median enrichment for YSQERWKQVTSTIA [OR5K1] .
7.21

Item under review: LPVGVAGSSLQIWPARCLAGWTG [DOLPP1] . Reported median enrichment?
8.63

Which value of median enrichment has been reported for SREHENGSMTLPDTDAT [TP53] in the records?
0.734

Name the reported median enrichment value associated with the substance YICLASPPSVFSTQRRREPAVPCRREEGLLDPRLSPSALRTPCPDSLLMVGPLCSSLPVGSLSSLTWIRFGFSTSLPQRKDYS [KRT13]
6.15

Consider the substance shown here: YRRQRAWCDLVGSGNGRKRSPP [BTBD9] What is its recorded median enrichment?
6.86

Fill blank: measured median enrichment of the substance RNCMKKIKSSKMALVTIKKL [CXorf41] is ____.
2.73

Can you share its median enrichment? I mean this substance: YMSEVQTLKKLAF [SLC7A13]
4.37

###

system: HEK293T; test: median enrichment of reporter reads in eGFP-reduced (low/intermediate) vs eGFP-high sorted cells (eGFP-extension fusion abundance) (ratio); higher = stronger loss of eGFP-fusion protein abundance (more destabilising extension)
The recorded median enrichment of each item maps onto one of these classes: LOW: < 4; MEDIUM: ≥ 4 and < 7; HIGH: ≥ 7

>  <substance>
CASALEETTGSPICLEFLLLLLLVCFQISLCFLLCSRKVLQNHREKVHCYKGIPTHWRL [PAQR9]

>  <class name>
HIGH

$$$$
>  <substance>
QNIYRVTKNKQSKKKTVY [LRRC4C]

>  <class name>
HIGH

$$$$
>  <substance>
LHGPCMLINASSEM [TMEM205]

>  <class name>
MEDIUM

$$$$
>  <substance>
SLLLVPK [RBKS]

>  <class name>
LOW

$$$$
>  <substance>
CRVAFFLL [GTF2A1]

>  <class name>
HIGH

$$$$

Exercise: read the entry SVGQATPPSSSCLRRSHSIHWNRSWVSLCSCLSFPRDPTPLWGSGTLHCTGSLHTGRGTCAPTSETCRSPQLTCPTGAQHCTQ [MAP3K11] and state which class it falls under.
MEDIUM

Would you mind sorting SVGEWAGMCILLPNSSIQDCAHIRSTRTSSHQHKNINRNAALSTV [WFDC10A] into the appropriate category?
MEDIUM

Hi there! Could you help me figure out the category for RPETECQPKESSCKTVIYCEYLHHMGSLMVNIFLQSC [TXK] please?
HIGH

Using the reported median enrichment, which band applies to YALNINSVLQIFITYLLQSQNPKIFIKSKYLMSFEGSLSYTK [C10orf88] ?
LOW

Hello team, could you let me know which band the following substance falls into: KCDKVQPSDLIIHKIIYT [ZNF679]
HIGH

###

system: HEK293T; test: median enrichment of reporter reads in eGFP-reduced (low/intermediate) vs eGFP-high sorted cells (eGFP-extension fusion abundance) (ratio); higher = stronger loss of eGFP-fusion protein abundance (more destabilising extension)
Overview of recorded median enrichment for various sequences
Please respond with just the number, no unit label.

Examples with their reported median enrichment follow.
>  <sequence string>
SWRRPMCIFF [FRAS1]

>  <target entity>
HEK293T

>  <measured attribute>
median enrichment

>  <assay value>
9.68

$$$$
>  <sequence string>
WGSAQISVVRKPVPLGFSPHTTACRTLEWTQSSH [CA6]

>  <target entity>
HEK293T

>  <measured attribute>
median enrichment

>  <assay value>
7.98

$$$$
>  <sequence string>
WKHFLPKVSGLRYTSIQQCIVIKILFQS [OR2L3]

>  <target entity>
HEK293T

>  <measured attribute>
median enrichment

>  <assay value>
7.3

$$$$
>  <sequence string>
LNLKKSFQ [CCDC160]

>  <target entity>
HEK293T

>  <measured attribute>
median enrichment

>  <assay value>
1.05

$$$$
>  <sequence string>
YNWKLSTHRKRSLLGRWPPQCLEKNLWASTAAREELLQARGRKGENTNSLVVSGVGG [S1PR1]

>  <target entity>
HEK293T

>  <measured attribute>
median enrichment

>  <assay value>
5.24

$$$$
>  <sequence string>
WDSSQFERQ [MYCBP]

>  <target entity>
HEK293T;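 also: lentiviral eGFP-IRES-mCherry reporter pool sorted by FACS 96 h post-transduction, gated on mCherry-high cells, Illumina read counts normalized per million, median across four biological replicates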

>  <measured attribute>
median enrichment

>  <assay value>
0.249

$$$$

Below: the item to evaluate.
Suppose we examine the sequence QTGWPGPNP [EMILIN3] ; what median enrichment value has been reported?
0.352
